Data provenance is PubChem BioAssay.

# target.or.test.system: Short transient receptor potential channel 6 (Mus musculus)
# experimental.details: TRPC6 blockade by TRPC4 inhibitor hits – cell-based, HEK293, membrane potential dye, duplicate, selectivity assay for TRPC4 inhibitor project, confirmation (AID 434948)
# run.conditions: HEK293 TRPC6, membrane potential dye fluorescence, at 10 µM, stimulated with maximal-effect acetylcholine
Calls of active or inactive are those of the source.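 How the source made its calls: active means active in primary screen and both duplicates, each dropping signal beyond three positive-control SD with fluorescence still positive; inactive means the rest.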
Outcomes you can answer with include only these: active, inactive

Recorded test outcome, item "Cc1ccc2nc(C)c3c(c2c1)N(c1ccc(F)cc1)CC3"
active

Outcome? "COc1ccc(OC)c(NC(=O)COC(=O)Cc2ccc(-c3ccccc3)cc2)c1"
inactive

Look up the recorded call for "Cc1ccc(C(=O)O)cc1N=Cc1cc(Br)cc(Br)c1O" in this test.
inactive

In this assay, the call recorded for "O=c1oc2ccccc2c(O)c1/C=C1\C=Nc2ccccc21" was what?
inactive

What is the recorded call for this compound in the test? "CCOC(=O)c1oc2ccccc2c1CN1CCCCC1"
inactive

Further cases:
Assay outcome for "CCN1CCN(c2c(Cl)cccc2NC(=O)c2cccs2)CC1" : what was it?
inactive

What did the test return for CN(CCOc1ccc(Br)cc1)CC(O)c1ccccc1 (stereo unspecified) ?
inactive

Per the assay record, what outcome was assigned to N=c1n(Cc2ccccc2)c2ccccc2n1CC(O)COc1ccccc1 (stereo unspecified) ?
inactive
